System: α-Glucosidase (E.C.3.2.1.20)
Test: α-Glucosidase enzyme inhibition assay
Format: biochemical
Conditions: Table 1
Text: α-Glucosidase Enzyme Inhibition Assay α-Glucosidase (E.C.3.2.1.20) enzyme inhibition assay has been performed according to the slightly modified method of Matsui et al. α-Glucosidase (E.C.3.2.1.20) from Saccharomyces sp. was purchased from Wako Pure Chemical Industries Ltd. (Wako 076-02841). […] The increment in absorption at 400 nm due to the hydrolysis of PNP-G by α-glucosidase was monitored continuously with the spectrophotometer (Molecular Devices, USA). […]
measured.endpoint: Active (activity against alpha-glucosidase enzyme)

Worked cases, Active (activity against alpha-glucosidase enzyme) given:
{"compound": "C#C[C@]1(O)CC[C@H]2[C@@H]3[C@H](C)CC4=C(CC[C@@H](O)C4)[C@H]3CC[C@@]21C [Compound 3, 3α-hydroxytibolone]", "assay.value": "No"}
{"compound": "C#CC1(O)CCC2C3C(C)CC4=CC(=O)CCC4(O)C3CCC21C (centres unmarked) [Compound 8]", "assay.value": "No"}
{"compound": "C#CC1(O)CCC2C3C(C)C(O)C4=CC(=O)C=CC4C3CCC21C (centres unmarked) [Compound 15]", "assay.value": "Yes"}
{"compound": "C#CC1(O)CCC2C3C(C)C(O)C4=CC(=O)CCC4C3CCC21C (stereo not drawn) [Compound 13, 6α-Hydroxy-Δ^4-tibolone]", "assay.value": "Yes"}

# input for lookup
Query: Fill in the blank: the reported Active (activity against alpha-glucosidase enzyme) of C#CC1(O)CC(O)C2C3C(C)CC4=CC(=O)CCC4C3CCC21C (stereo not drawn) [Compound 14, 15α-Hydroxy-Δ^4-tibolone] is ____.
Result: Yes
